- ASSAYED TARGET: T1, recombinant human CD47 (Novoprotein cat no. C321, lot no. 0329689) (human, UniProt Q08722 19-139)
- T1 construct: Bought reagent
- ASSAY NOTES: SPR summary table, 25 C
RECORDED METRIC: kon (M⁻¹ s⁻¹)
The reply should contain only the number, in M⁻¹ s⁻¹.

Known kon results, listed for orientation:
[[record]]
binder = "anti-CD47 AlivaMab antibody 107 (antibody, IgG1, V domains shown, Chimeric AlivaMab Mouse mAb from hybridoma: human V, CH1 and upper hinge, mouse middle hinge, CH2 and CH3, human kappa light chain) VH: QVQLQESGPGLMKPSETLSLTCTVSGGSISSYYWTWIRQPPGKGLEWIGYIYYSGSTNYNPSLKSRVTISVDTSKNQFSLKLSSVTAADTAVYYCARGRGALTAWGQGTLVTVSS VL: DIQLTQSPSFLSASVGDRVTITCRASQDIGSYLAWCQQKPGKAPKLLIYAASTLQGGVPSRFSGSGSGTEFTLTISSLQPEDFATYYCQQLNSYPLTFGGGTKVEIK"
endpoint_result = "5.7e+06"

[[record]]
binder = "anti-CD47 AlivaMab antibody 139 (antibody, IgG1, V domains shown, Chimeric AlivaMab Mouse mAb from hybridoma: human V, CH1 and upper hinge, mouse middle hinge, CH2 and CH3, human kappa light chain) VH: QVQLQESGPGLVKPSETLSLTCTVSGGSISNYYWSWIRQPPGKGLEWIGYIYYSGSTNYNPSLKSRVTISVDTSKNQFSLKLSSVTAADTAVYYCARSRYFDLWGRGTLVTVSS VL: DIQMTQSPSAMSASVGDRVTITCRASQGISIYLAWFQQKPGKVPKRLIYAASSLQSGVPSRFSGSGSGTEFTLTISSLQPEDFATYYCLQHTSYPYTFGQGTKLEIK"
endpoint_result = "1.18e+06"

[[record]]
binder = "anti-CD47 AlivaMab antibody 91 (antibody, IgG1, V domains shown, Chimeric AlivaMab Mouse mAb from hybridoma: human V, CH1 and upper hinge, mouse middle hinge, CH2 and CH3, human kappa light chain; also called clone 91; mAb 91) VH: QVQLQESGPGLVKPSETLSLTCTVSGGSISTYYWSWIRQPPGKGLEWIGYIYYSGTTNYNPSLKSRVTISVDTSKNQFSLKLSSVTAADTAVYYCARKRDAFDIWGQGTMVTVSS VL: EIVLTQSPGTLSLSPGERATLSCRASQSVSSTYLAWSQQKPGQAPRLLIYGASSRATGIPDRFSGSGSGTDFTLTISRLEPEDFAVYYCQQYGSSRTFGQGTKVEIK"
endpoint_result = "7.2e+06"


Moving on to the next binder.
query: Which kon reading was recorded for the binder anti-CD47 AlivaMab antibody 151 (antibody, IgG1, V domains shown, Chimeric AlivaMab Mouse mAb from hybridoma: human V, CH1 and upper hinge, mouse middle hinge, CH2 and CH3, human kappa light chain; also called clone 151; mAb 151) VH: QVQLQESGPGLVKPSETLSLTCTVSGGSISSYYWSWIRQPPGKGLEWIGYIYYSGSTNYNPSLKSRVTISVDTSKNQFSLKLSSVTAADTAVYYCARKRKYFDYWGQGTLVTVSS VL: DIQMTQSPSSLSASVGDRVTITCRASQGISNYLAWYQQKPGKVPKLLIYAASTLQSGVPSRFSGSGSGTDFTLTISSLQPEDVATYYCQKCNSAPFTFGPGTKVDIK ?
result: 8.7e+06
